Tested on: LXRb:RXRa (NR concentration 270 nM, RXRa partner concentration 90 nM)
Experiment: PBM binding z-score (relative to random genomic background probes); higher = stronger binding; sequences stand for … in GC…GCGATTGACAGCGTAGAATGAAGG
Threshold check on PBM binding z-score: at or above 0.9 gives Fulfilled, strictly below gives Not fulfilled.

Use these answered entries as a reference point.
>>> class("CGTCCATGGTCATAGGAGGTCAGTGAAGACAGAT")
"Fulfilled"
>>> class("CCTTACGGGTCACAAGGTTATAGCACGACGAGCG")
"Fulfilled"

Assess whether reported PBM binding z-score for "ATCGAAAGGTCGTGGGGTGAGTATACAGAAAGGC" sits at 0.9 or higher.
Fulfilled

Please tell me: is the sequence "ACTAGCAGGCCAAGGGTCCCTCAAGATTAGTCCG" at or over 0.9 in terms of PBM binding z-score?
Not fulfilled

Check the entry "CCGACTGCGGCAAAGGTTACCATACTCAGTACGA" : does PBM binding z-score equal or exceed 0.9?
Fulfilled
